- testTarget: T1, human CD228 (R&D Systems Custom02; Lot DCWR021505A) (human, UniProt P08582 20-709, limits assumed)
- T1 construct: Bought custom protein coated on ELISA plates; also called CD228 protein; melanotransferrin
- T1 sequence (looked up): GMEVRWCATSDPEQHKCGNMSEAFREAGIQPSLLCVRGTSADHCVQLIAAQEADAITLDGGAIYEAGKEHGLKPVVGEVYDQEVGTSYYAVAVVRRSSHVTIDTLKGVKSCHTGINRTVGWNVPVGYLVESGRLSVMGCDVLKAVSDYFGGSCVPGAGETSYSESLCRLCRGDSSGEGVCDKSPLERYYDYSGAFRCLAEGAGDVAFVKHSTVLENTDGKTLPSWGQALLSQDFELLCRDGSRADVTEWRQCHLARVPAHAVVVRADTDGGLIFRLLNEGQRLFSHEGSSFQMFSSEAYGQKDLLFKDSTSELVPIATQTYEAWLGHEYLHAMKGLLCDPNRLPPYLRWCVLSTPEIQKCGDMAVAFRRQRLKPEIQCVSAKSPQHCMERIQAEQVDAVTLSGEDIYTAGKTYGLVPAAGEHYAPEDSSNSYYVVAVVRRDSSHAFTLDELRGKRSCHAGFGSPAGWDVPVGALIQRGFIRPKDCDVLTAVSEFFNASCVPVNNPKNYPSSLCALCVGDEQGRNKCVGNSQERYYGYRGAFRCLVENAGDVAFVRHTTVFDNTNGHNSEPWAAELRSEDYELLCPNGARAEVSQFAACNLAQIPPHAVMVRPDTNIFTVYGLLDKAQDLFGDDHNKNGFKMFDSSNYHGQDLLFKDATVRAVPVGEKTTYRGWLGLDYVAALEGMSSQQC
- testSummary: ELISA, coated human CD228, pH 6.30
measuredEndpoint: EC50 (nM)
Numeric answer only, unit nM assumed.

Per the records, this binder ( hL49_34_Ala (antibody, V domains shown, hL49 variant with the light chain CDR-L1 histidine 34 changed to alanine; also called hL49_H34A) VH: QVQLQESGPGLVKPSETLSLTCTVSGDSITSGYWNWIRQPPGKGLEYIGYISDSGITYYNPSLKSRVTISRDTSKNQYSLKLSSVTAADTAVYYCARRTLATYYAMDYWGQGTLVTVSS VL: DFVMTQSPLSLPVTLGQPASISCRASQSLVHSDGNTYLAWYQQRPGQSPRLLIYRVSNRFSGVPDRFSGSGSGTDFTLKISRVEAEDVGVYYCSQSTHVPPTFGQGTKLEIK ) has EC50 equal to 16.5

Per the records, this binder ( hL49_27D_Ala (antibody, V domains shown, hL49 variant with the light chain CDR-L1 histidine 27D changed to alanine) VH: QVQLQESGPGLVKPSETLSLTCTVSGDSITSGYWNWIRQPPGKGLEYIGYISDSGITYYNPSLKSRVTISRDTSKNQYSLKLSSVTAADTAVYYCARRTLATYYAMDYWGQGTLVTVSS VL: DFVMTQSPLSLPVTLGQPASISCRASQSLVASDGNTYLHWYQQRPGQSPRLLIYRVSNRFSGVPDRFSGSGSGTDFTLKISRVEAEDVGVYYCSQSTHVPPTFGQGTKLEIK ) has EC50 equal to 0.99
